# assayProtocol: Solubility of compound at pH 5 by reversed-phase UPLC analysis
# Format: physicochemical
# reportedConditions: buffer
parameterMeasured: solubility

For this compound ( [2H]C([2H])([2H])NC(=O)c1cnc(NC(=O)C2CC2)cc1Nc1cccc(-c2nnn(C)n2)c1OC ), measured solubility is < 1 µg/mL

====

# assayProtocol: Tmax in Famotidine-pretreated Sprague-Dawley rat at 10 mg/kg, po measured for 24 hrs by UPLC-MS/MS analysis
# Type: ADME, organism-based
# reportedConditions: in vivo
In this section we review reported Tmax values for a set of compounds.
Reply with the number, then its unit.

[2H]C([2H])([2H])NC(=O)c1cnc(NC(=O)C2CC2)cc1Nc1cccc(-c2nnn(C)n2)c1OC = 2.5 h

Turning to the following compound.
Item: Cl.[2H]C([2H])([2H])NC(=O)c1cnc(NC(=O)C2CC2)cc1Nc1cccc(-c2nnn(C)n2)c1OC | Tmax: 4 h
